Each item that follows carries a reported pEC50.
- Tested on: H-4-II-E cells
- ASSAY_NAME: WST-1 metabolic activity (cytotoxicity) in H-4-II-E cells
- Assay type: cell-based, rat (Rattus norvegicus)
- EXPERIMENTAL_PARAMETERS: Rattus norvegicus, H4IIE, single constituents, 4 hr
pEC50: −log10 of the molar value.

| MOLECULE | pEC50 |
| --- | --- |
| C=C(C)[C@H]1C[C@@]2(C)C(=CC1=O)CC[C@@H](OC(=O)/C(C)=C\C)[C@@H]2C [neopetasin] | 4.80 |
| C=C(C)[C@@H]1C[C@@]2(C)C(=CC1=O)CC[C@@H](OC(=O)/C(C)=C\C)[C@@H]2C [petasin] | 3.88 |
| C/C=C(/C)C(=O)O[C@@H]1CCC2=CC(=O)C(=C(C)C)C[C@]2(C)[C@H]1C [isopetasin] | 3.96 |

Values compiled from paper PMC7004140.
